experimentalTarget: Indoleamine 2,3-dioxygenase 1 (Homo sapiens)
Sequence (P14902 whole entry): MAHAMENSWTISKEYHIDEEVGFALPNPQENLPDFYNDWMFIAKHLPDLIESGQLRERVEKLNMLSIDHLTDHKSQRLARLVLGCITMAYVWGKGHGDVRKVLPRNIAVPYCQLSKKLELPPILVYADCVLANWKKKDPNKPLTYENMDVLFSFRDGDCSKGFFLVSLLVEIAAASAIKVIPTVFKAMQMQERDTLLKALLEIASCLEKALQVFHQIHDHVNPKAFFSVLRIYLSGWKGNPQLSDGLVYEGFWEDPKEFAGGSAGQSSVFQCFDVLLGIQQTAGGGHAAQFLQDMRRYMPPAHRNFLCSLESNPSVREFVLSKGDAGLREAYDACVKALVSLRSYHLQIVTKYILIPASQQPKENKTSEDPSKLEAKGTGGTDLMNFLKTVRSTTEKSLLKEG
method: Inhibition of human recombinant IDO expressed in Escherichia coli using N-formylkynurenine as substrate incubated for 1 hr prior to NaOH addition measured after 4 hrs by spectrophotometry
pIC50: −log10 of the molar value.
readout: pIC50

Worked cases, pIC50 given:
CC(=O)Nc1ccc(S(=O)(=O)NNc2ccc(F)cc2)cc1    7.10
CC(=O)Nc1ccc(S(=O)(=O)NNc2ccc(Br)c(C)c2)cc1    7.24
CC(=O)Nc1ccc(S(=O)(=O)NNc2cccc(F)c2)cc1    6.91
Cc1cccc(NNS(=O)(=O)c2ccc(Oc3ccc(C(F)(F)F)cn3)cc2)c1    7.23
CCCC(=O)Nc1ccc(S(=O)(=O)NNc2ccc(Br)cc2)cc1    6.88
O=C(O)c1ccc(S(=O)(=O)NNc2ccc(Br)cc2)cc1    7.21

A: CC(=O)Nc1ccc(S(=O)(=O)NNc2ccc(Cl)c(Cl)c2)cc1
B: CC(=O)Nc1ccc(S(=O)(=O)NNc2ccc(C)cc2)cc1
C: CC(=O)Nc1ccc(S(=O)(=O)NNc2ccc(F)cc2F)cc1
D: CC(=O)Nc1ccc(S(=O)(=O)NNc2ccc(F)c(Cl)c2)cc1
E: CC(=O)Nc1ccc(S(=O)(=O)NNc2ccc(C(F)(F)F)cc2)cc1
Rank the items in ascending order with respect to pIC50. # output: labels, in the requested order
E, C, A, D, B
(E: 5.79, C: 6.22, A: 6.61, D: 6.96, B: 7.29)
